Attribution: PubChem BioAssay AID743279

- MEASUREMENT_DESCRIPTION: qHTS for Inhibitors of Inflammasome Signaling: IL-1-beta AlphaLISA Primary Screen; further: on the % scale 0 is the no-effect control and ±100 the full control effect
- ASSAY_CONDITIONS: THP-1 LPS/ATP IL-1B secretion, 16 h; at 57.5 µM
- Excerpt: Inflammasomes are a set of intracellular multi-protein complexes that enable autocatalytic activation of inflammatory caspases and drive the innate immune response to counter harmful agents. […] A qHTS assay, based on AlphaLISA technology, was developed to screen the Molecular Libraries Small Molecule Repository (MLSMR) to look for novel inflammasome inhibitors. The assay detects IL-1B using AlphaLISA anti-IL-1B acceptor and donor beads. […]
Out of some 360,000 compounds screened, about 17,000 (4.7%) were called active. Not shown: some 5% with an inconclusive outcome. No stated cut-off is given here; in the data, active means activity change below about -50%; inconclusive means mostly about -30% to -49%; inactive means weaker than that. The sample holds actives, similar compounds and a random draw of the others, so the mix is not that of the screen.
Bench note: report the call from y for active, n for inactive

In [3]: df
Out[3]:
                                   compound  group_label
0  Cc1ccc2nc(SCC(=O)N3CCN(c4ccccc4)CC3)nc(=O)n2c1            n
1     CCOc1cc(/C=N/NC(=O)c2ccncc2)cc(Br)c1O            n
2     O=C(/C=C/c1ccco1)Nc1ccc(Oc2ccccc2)cc1            y
3  CC/C(=C(/c1ccccc1)c1ccc(OCC[N+](C)(C)C)cc1)c1ccccc1            y
4  COc1cccc(CC2(CO)CCN(Cc3cnc(-c4cccc(C)c4)nc3)CC2)c1            y

Assay result, entry COc1ccccc1-n1nnnc1SCC(=O)NC(=O)Cc1ccccc1 — outcome?
n

Assay result, entry COc1ccc(Br)cc1/C=N/Nc1ccc(S(=O)(=O)Nc2ccccc2C(=O)O)cc1[N+](=O)[O-] — outcome?
n

Assay result, entry O=C(NC(Cc1c[nH]c2ccccc12)C(=O)N/N=C/c1ccc(Br)cc1)c1cccs1 (stereo not drawn) — outcome?
y

Assay result, entry Cc1c(C(=O)Nc2ccccc2)sc2nc3n(c(=O)c12)CCCCC3 — outcome?
n

Assay result, entry O=[N+]([O-])c1cccc(S(=O)(=O)NCc2ccccn2)c1 — outcome?
n

Assay result, entry Cc1cccc(-c2ncc(CN3CCC(CO)(CCCc4ccccc4)CC3)cn2)c1 — outcome?
n

====

- MEASUREMENT_DESCRIPTION: qHTS for Inhibitors of Inflammasome Signaling: IL-1-beta AlphaLISA Primary Screen
- ASSAY_CONDITIONS: THP-1 LPS/ATP IL-1B secretion, 16 h; at 57.5 µM, stronger effect = lower value
Screen size: about 360,000 compounds; about 17,000 (4.7%) were called active. About 5% were inconclusive and are not listed. The full list was thinned out, with actives kept by preference.
ASSAY_METRIC: activity change (%)
Use % as the unit, but write only the number.

// known answers, use as guide
>>> print(df.to_string())
                                   molecule  unit_spec  meas_value
0  O=C(Cc1ccc(S(=O)(=O)N2CCOCC2)s1)NCCOc1ccccc1F          %        6.24
1  Cc1ccc(CNC(=O)CCNC(=O)Cn2ccc3ccccc3c2=O)cc1          %       -21.6
2  O=C(c1ccc(Cn2cc([N+](=O)[O-])cn2)o1)N1CCCC1          %        13.7
3  COC(=O)COc1cccc2c(=O)n(CC(=O)NCc3ccccc3)ccc12          %       -57.4
4  CN(C)CCN1CCN(c2cc(-c3cccc(Cl)c3)nc3ccnn23)CC1          %        6.44
5  O=C(Cc1ccc(S(=O)(=O)N2CCOCC2)s1)Nc1ccc(Br)c(C(F)(F)F)c1          %         -61

Indicate its recorded activity change; the molecule in question is Nc1ncnc2c1ncn2[C@@H]1O[C@H](C(=O)NS(=O)(=O)c2c(Cl)nc3sccn23)[C@@H](O)[C@H]1O
-13.5

Indicate its recorded activity change; the molecule in question is CCC(CC)C(C(=O)NC1CCCC1)N1CCN(c2cc(C)nc3ccccc23)CC1 (stereo unspecified)
-20.5

Indicate its recorded activity change; the molecule in question is CCC(C)C1(C2CCCC2)NC(=O)NC1=O (stereo unspecified)
-5.19

Indicate its recorded activity change; the molecule in question is COc1cccc2c(=O)n(CC(=O)N3CCCCCC3)ccc12
-3.57

Indicate its recorded activity change; the molecule in question is Clc1ccc2nc(-c3ccccc3)nc(C(Cl)Cl)c2c1
42.9
